assay: amyloid nucleation score (Sup35N fusion, yeast selection) (log enrichment); library NNK2; higher = more nucleation; inactive = no reads after selection;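 note: zero at mode of non-aggregating sequences after 7 days selection at 30°C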
Recorded measurements of amyloid nucleation score, one per entry
reported endpoint: amyloid nucleation score

chain_sequence=PDLRKDYAWLLLFLVRVRGD reading=4.43
chain_sequence=TLFQLFIYLTFKVQVVAGTT reading=3.92
chain_sequence=GANMLETV reading=-0.085
chain_sequence=YLCAFVRWWYR reading=-0.029
chain_sequence=DMVVMVYALLGPLQFECNK reading=0.888

---

// amyloid nucleation score lookup, one value per entry
assay: amyloid nucleation score (Sup35N fusion, yeast selection) (log enrichment); library NNK1; higher = more nucleation; inactive = no reads after selection
reported endpoint: amyloid nucleation score

substance=TTYHCGP reading=0.039
substance=LWNIMVLDIWDRDLCSCIWG reading=0.756
substance=NAAYRVWMWKSLVRSLGRYK reading=0.647
substance=GLVHEAHLDANKFFH reading=-0.139
substance=RLFFSE reading=0.117
substance=VIERFMAKRPGC reading=0.698
substance=GHTLRDVWASVEVRSNVDLD reading=0.54
substance=NPGIDYNERYWMG reading=-1.09
substance=HYQERC reading=-0.604

---

experiment: amyloid nucleation score (Sup35N fusion, yeast selection) (log enrichment); library NNK1; higher = more nucleation; inactive = no reads after selection
Rule: amyloid nucleation score of 0.09 or more gives class 1; anything lower gives class 0.

substance=MPCFGVQKIYQLDETMPSET classification="class 1"
substance=NDIYLDGNVFKF classification="class 0"
substance=FTVVISSLNEGEEHRVWCKF classification="class 0"
substance=AAALRIIGHYMRALLTELLQ classification="class 1"
substance=YRHPVMTWEPSRDLSFVLCL classification="class 1"
substance=RWYVFWQSMGCVRSGVWVKG classification="class 1"
substance=KVYYYKPLIRNPTSFLITIL classification="class 1"
substance=KGMLLCYFPNKCPAWEAKCG classification="class 1"
substance=GSFFTKDSDTP classification="class 1"
substance=YFYDVMNLRCLVFNKSWFVL classification="class 1"
substance=VSLRCWCWGGTHVKPQRGYV classification="class 1"
substance=RMYYAFVCGGEDMESEFPCY classification="class 0"
substance=RIVILLKVIYFQFYRLQYIT classification="class 0"
substance=SFNYRIAFFSRYRPYMGSLG classification="class 1"
substance=YVDVSSS classification="class 1"
substance=SYEMWLEHYMRRQQRRP classification="class 0"
substance=EIFSNPSVYHESMK classification="class 0"
substance=HFVCYNCWGYICTVCLTSRE classification="class 1"
substance=YSVWVYRLMRYELNVTFCR classification="class 1"
substance=HVFIIQRMSWGVLRLLVSCR classification="class 0"
substance=FVFFSLGHLAFFARDRYSPW classification="class 1"
substance=QHEDISPPKLPIVNSAIPFV classification="class 1"
substance=VRRGFGPIITLYNFIISIWF classification="class 1"
substance=RMAPMMDP classification="class 0"
substance=LCLLCNRYRWTN classification="class 1"
substance=GPCGTLSI classification="class 0"

---

experiment: amyloid nucleation score (Sup35N fusion, yeast selection) (log enrichment); library NNK1; higher = more nucleation; inactive = no reads after selection
reported endpoint: amyloid nucleation score

substance=EVMDTLYLLLVCRYFAKCIT reported_endpoint="amyloid nucleation score" reading=inactive
substance=LLAEASLVKETTLCYHSPSL reported_endpoint="amyloid nucleation score" reading=0.04
substance=VKRRVSDTHVSCVKGHGSVC reported_endpoint="amyloid nucleation score" reading=inactive
substance=CFVVVCLFMKA reported_endpoint="amyloid nucleation score" reading=inactive
substance=CFGSSRVSCEYTDDRDDCGM reported_endpoint="amyloid nucleation score" reading=inactive
substance=CGKSIEETSLRNPIPGNVLG reported_endpoint="amyloid nucleation score" reading=0.476
substance=TLQLICYY reported_endpoint="amyloid nucleation score" reading=3.29
substance=SLWAYNPV reported_endpoint="amyloid nucleation score" reading=2.04
substance=TRNVQHRIRSKSTISDKQIF reported_endpoint="amyloid nucleation score" reading=inactive
substance=GGYVIF reported_endpoint="amyloid nucleation score" reading=0.212
substance=FLIFKSCLVGILRSSNKIGC reported_endpoint="amyloid nucleation score" reading=-0.469
substance=EKDVAIFLDLGYFHCTRSST reported_endpoint="amyloid nucleation score" reading=1.97
substance=GLVFTLWSASRCFFLRKKLW reported_endpoint="amyloid nucleation score" reading=-0.083
substance=CTVLRRFIRYHTITVYMWL reported_endpoint="amyloid nucleation score" reading=0.257
substance=SELYLFSSRGIYQSTRLRLR reported_endpoint="amyloid nucleation score" reading=-0.147
substance=QYVPNTLDNSPDAVGMSNIY reported_endpoint="amyloid nucleation score" reading=-0.29
substance=YNLGQVFSWINDTTSMMCGK reported_endpoint="amyloid nucleation score" reading=0.567
substance=ILSNTRSVFYSSN reported_endpoint="amyloid nucleation score" reading=-0.089
substance=EFAKNSFAKNTFAADAWLII reported_endpoint="amyloid nucleation score" reading=0.802
substance=FLQEVITDLKSVW reported_endpoint="amyloid nucleation score" reading=3.08
substance=LLFFGYYAFDHICYAEYLSC reported_endpoint="amyloid nucleation score" reading=2.71
substance=PWTYQHGQLASWVLGES reported_endpoint="amyloid nucleation score" reading=-0.242
substance=SNFLFRCSIWDDMGGKCRSK reported_endpoint="amyloid nucleation score" reading=inactive
substance=SEICLLVSSKSGHDAQSTIS reported_endpoint="amyloid nucleation score" reading=-0.011
substance=LRGVPLYFDGRHMWYAFSRY reported_endpoint="amyloid nucleation score" reading=-0.424

---

In this section, each of the substances is paired with its reported amyloid nucleation score.
assay: amyloid nucleation score (Sup35N fusion, yeast selection) (log enrichment); library NNK2; higher = more nucleation; inactive = no reads after selection
reported endpoint: amyloid nucleation score

substance=LRDIYNFGDSHYFRNYSVTE reported_endpoint="amyloid nucleation score" reading=-0.132
substance=AYIDVTWWPFVFLDQVMYTT reported_endpoint="amyloid nucleation score" reading=0.089
substance=SLAQDVRGYGLCNGKTNIVW reported_endpoint="amyloid nucleation score" reading=-0.867
substance=NRMRVMAWCAILNKELSGGK reported_endpoint="amyloid nucleation score" reading=0.93
substance=SVWWSSNFINPPDFCNM reported_endpoint="amyloid nucleation score" reading=-1.19
substance=TDLIAVGCPLMYSMRE reported_endpoint="amyloid nucleation score" reading=2.04
substance=SFAIIS reported_endpoint="amyloid nucleation score" reading=0.077
substance=AIYLWSF reported_endpoint="amyloid nucleation score" reading=4.85
substance=FRRCGPDGGIWLDLAACKKI reported_endpoint="amyloid nucleation score" reading=0.1
substance=RRLWGIALYRVSLVVFGSLY reported_endpoint="amyloid nucleation score" reading=-0.354
substance=MPGKPWTGVVLKPRSESPAW reported_endpoint="amyloid nucleation score" reading=0.057

---

assay: amyloid nucleation score (Sup35N fusion, yeast selection) (log enrichment); library NNK2; higher = more nucleation; inactive = no reads after selection
Category | rule: reported amyloid nucleation score within range, see 1 (below 0.06), 2 (0.06 to below 1), 3 (1 or more)

substance=VFGVLPIIGYPVRVLCVRFI classification=1
substance=LPVREALMRKWMVQLLVFVS classification=3
substance=LDAERM classification=2
substance=VSLHKRPTWLPVCIARYGWS classification=2
substance=ARECNY classification=3
substance=NDSVRTVGCIQYMMRIASVF classification=2
substance=LIRFTLMSTFEITIMSFRCV classification=2
substance=ATRCGDFDQACHSGIT classification=2
substance=QPGSLMGNRPKESVRASRAR classification=1
substance=SRICIFDDCNRRLARYWGLR classification=1
substance=FMIFDVGNSGKYLLSVS classification=1
substance=RNPNVEVCRKQFRVGCSLAN classification=1
substance=VGLNYNAMAHTSRGSF classification=2
substance=RVFNLNKKMNFSTISG classification=1
substance=CCTTIEGDTLCGCFWD classification=3
substance=VACVAHNTHYELTQQSYIYY classification=3
substance=GVSVSSLSACPKEDFGSFSE classification=1
substance=SPVVKFRLLQSINLTHCY classification=3
substance=YIVACSWYSGLLGLVGYRRK classification=3
substance=VLACTEGNVLFEDDLRTKGL classification=3
substance=WSGLFVKKNVVFRVRNGVT classification=1

---

assay: amyloid nucleation score (Sup35N fusion, yeast selection) (log enrichment); library NNK1; higher = more nucleation; inactive = no reads after selection
reported endpoint: amyloid nucleation score

substance=FVLTYDLMLLQSGFNSRL reading=0.756
substance=CEWFPRHKMYLESVFVYKRL reading=-0.116
substance=DRLSAT reading=0.272
substance=GKLSSLLMFCRNSLFVGFLG reading=-0.086
substance=WSDHDCIRPNFKYCMIRGRS reading=0.531
substance=NKWSRSGKRCAKMGNSCSDE reading=1.49
substance=ELKSAFCWRARLG reading=0.197
substance=WKMNGPFDFDPRRMISHDLK reading=-0.158
substance=PLGGLGYV reading=0.543
substance=VDRILFNVLAVSFDMELRSL reading=0.224
substance=YRVVYRKNVDCTMYQFMSRR reading=0.539
substance=SASAISTPGGCYDGYLFDSQ reading=-0.457
substance=KLYGTRFPQFSRSVNEYC reading=0.111
substance=YCHSVVFV reading=0.352
substance=FLFRGV reading=-0.28
substance=PPWPVNSDDPGHYETSSNFS reading=1.29
substance=KVGLLWGT reading=0.197
substance=KGRSNLIADFGDLFGGLYTY reading=-0.57
substance=AGSGRGRGGCTSNRSDYSSG reading=-0.849
substance=PFAGNHTMWKVPTWGKSWKG reading=-0.398
substance=SPLVDLYDFRWRLESRYKNY reading=0.107
substance=NLALLEYVINSVSTMFYISN reading=0.276
substance=VDNDLGQLPGMW reading=-0.561
substance=TVRGGLY reading=-1.04
substance=CGALWALKV reading=-1.04
substance=FDIVDANKGAAPGKTVYLWR reading=0.641
substance=INFCRSPMPWNGSALVNLMV reading=-0.014
substance=GFGAQPWRARSMFYK reading=0.566
substance=GGECYLLEYLSMSGVYCFRI reading=-1.25
substance=NFDYHTTTVGMELWSLGFSS reading=-0.585
substance=HLILGLL reading=-0.54
substance=HIGGTFVWLEFPCKWGLTED reading=4.46
substance=RTHEFQTLMEAFRSNTAVSA reading=-0.031
substance=SVIRVLWKGYGTRN reading=-1.55
substance=NWSEWGSRIHFKCWIEMLLR reading=0.174
substance=GMDTYLMETLCSTVNLRCHA reading=-0.604
substance=LSTYAGCRNAWPELQ reading=-0.52
substance=LYPLMEGDRKKL reading=0.981
substance=DIVDARFTLTGFKFECVR reading=0.297
substance=ASFITGWMANTYN reading=0.385
substance=THFRMGKSFVICLGLASYPL reading=0.374
substance=TRSGYAHARSSAAQSFTL reading=0.622
substance=ITVYLMALVNNVCG reading=3.38
substance=TCNGCGGHRMFWYK reading=0.099
substance=YCLSYEDCYWYVSVSLRYLW reading=-0.477
substance=YRCAYFL reading=-0.25
substance=GNNGVEKPKNHISGELFGTN reading=-0.138
substance=PLSVNLKYVYNLVVDLFGLP reading=2.61
substance=RLMTDHINSTVTSMGKGRIT reading=-0.026
substance=HERDIQSSIGDWNKLSKPCN reading=-0.418
substance=VGRRNKVAWVKLRHEVRRCV reading=0.106
substance=SKIESHFWLVFNIRGSYNKA reading=7.3
substance=SLMKELKF reading=-0.034
substance=FYGCNSRA reading=-0.037
